Origin of the recorded values: PubChem BioAssay AID179

System: CEM cells HIV-1 protection, formazan growth assay
experiment_notes: NCI AIDS Antiviral Assay;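 active = compounds giving half or more protection of infected cells from virus-caused growth loss, again on retest; inactive = the rest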
Procedure: The ability of compounds to protect human CEM cells from HIV-1 infection is measured as a screen for new compounds capable of inhibiting the HIV virus. Five concentrations of drug were tested on uninfected and infected cells and cell growth was measured using a soluble formazan assay. […] Compounds that provided at least 50% protection were retested. Compounds that provided at least 50% protection on retest were listed as moderately active. […]
# valid calls are Yes (active), No (inactive); nothing else

INSERT INTO results (compound, label) VALUES
  ('CN(C)CCCOC(=O)C1C[C@@H](O)CN1C(=O)c1ccc2c(c1)OCO2 (stereo partly drawn)', 'No'),
  ('CCCn1c(=O)c2nn3c(=O)n(CCC)c(=O)c3nn2c1=O', 'No'),
  ('CN(C)CCCCC1c2ccccc2Sc2ccccc21', 'No'),
  ('COc1ccc(/C(C#N)=C/c2cccc(N)c2)cc1', 'No');

In: Write down the call the test reported for this compound. Item: C=C1c2ccccc2CCN1CC(=O)CC1C=CCS1(=O)=O (stereo not drawn)
Out: No

In: Write down the call the test reported for this compound. Item: COc1ccc2c(c1)c(OC)c(CC(O)C(C)(C)O)c(=O)n2C (stereo not drawn)
Out: No

In: Write down the call the test reported for this compound. Item: COCN1COCN(COC)C1=O
Out: No

In: Write down the call the test reported for this compound. Item: CCc1ccccc1NC(=O)/C(N=O)=C(/C)O
Out: No

In: Write down the call the test reported for this compound. Item: O=C(NCCCNC(=O)c1ccc2c(O)c(O)ccc2c1)c1ccc2c(O)c(O)ccc2c1
Out: No

* * *

Tested on: CEM cells HIV-1 protection, formazan growth assay
experiment_notes: NCI AIDS Antiviral Assay
Method: The ability of compounds to protect human CEM cells from HIV-1 infection is measured as a screen for new compounds capable of inhibiting the HIV virus. Five concentrations of drug were tested on uninfected and infected cells and cell growth was measured using a soluble formazan assay. […] Compounds that provided at least 50% protection were retested. Compounds that provided at least 50% protection on retest were listed as moderately active. […]
pEC50: −log10 of the molar value.
observation_type: pEC50

Below are worked cases with known answers.
INSERT INTO assay_data (compound, reported) VALUES
  ('Nc1nc2cnc(COc3ccccc3)nc2c(=O)[nH]1', '< 3.70'),
  ('CCOC(=O)/C(=C/c1cccc(Cl)c1)N(CC)CC', '< 4.04'),
  ('C/C(=N\NC(=S)N1CCN(c2ccccn2)CC1)c1ncccn1', '< 4.40');

Note to self: pEC50 recorded for COC(=O)c1c(C)cccc1/C=C1\Cc2ccc(C)c(C)c2C1=O was < 3.70

Note to self: pEC50 recorded for Cc1nc(N)nc(N)c1N1CCN(c2ccc(S(N)(=O)=O)cc2)CC1 was < 3.70

Note to self: pEC50 recorded for CCOC(=O)c1cc(/C=C/C(C)=C/C(=O)OC)n(C)c1C was < 4.61

Note to self: pEC50 recorded for COc1ccc(C2SCC(=O)N2c2ccc(-c3ccc(-n4c(-c5ccccc5)nc5ccccc5c4=O)cc3)cc2)cc1 (centres undefined) was < 3.70

Note to self: pEC50 recorded for O=S(=O)(CCC[C@H]1[C@@H](CCOCc2ccccc2)C2CCCN1O2)c1ccccc1 (some centres undefined) was < 3.70

Note to self: pEC50 recorded for CCN(CC)CCOc1ccc(C(C#N)=C(c2ccccc2)c2ccccc2)cc1 was < 3.70
